So I've got a bunch of binders here, and I need their ERA neutralizing antibody titer (RFFIT): nM IC50 values.
- tested-system: Rabies virus glycoprotein G, ERA strain (attenuated vaccine strain, ATCC VR332) (Rabies virus, ERA strain (genotype 1 lyssavirus)) (UniProt P03524)
- Sequence (P03524 20-524 limits assumed): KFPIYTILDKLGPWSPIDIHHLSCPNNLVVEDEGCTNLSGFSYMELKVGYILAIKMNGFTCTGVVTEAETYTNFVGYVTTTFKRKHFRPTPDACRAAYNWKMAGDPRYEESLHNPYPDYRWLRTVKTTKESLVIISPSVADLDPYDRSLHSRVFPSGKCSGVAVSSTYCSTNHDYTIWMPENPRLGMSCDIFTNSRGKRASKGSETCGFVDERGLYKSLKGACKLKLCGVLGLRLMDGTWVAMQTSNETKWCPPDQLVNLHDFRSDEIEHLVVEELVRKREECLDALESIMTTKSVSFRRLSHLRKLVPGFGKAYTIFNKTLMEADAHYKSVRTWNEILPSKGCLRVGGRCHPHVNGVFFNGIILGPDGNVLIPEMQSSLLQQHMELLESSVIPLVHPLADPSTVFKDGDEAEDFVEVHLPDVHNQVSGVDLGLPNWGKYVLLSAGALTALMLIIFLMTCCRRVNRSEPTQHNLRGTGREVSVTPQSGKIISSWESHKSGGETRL
- assay-summary: cell-based or functional assay
All answers are understood in nM, so give the number only.

Task: # input binder: LG212B2 (VHH) VHH: EMQLVESGGGLVQAGDSLRLSCAASGDTFSWYVMAWFRQAPGKEREFVTWINRSGASTYYADSVKGRFTIFRDNDKNTVYLQMNSLKPEDTAVYYCAAGGFYGLRTTEERYDTWGQGTQVTVSS ; wanted: its ERA neutralizing antibody titer (RFFIT): nM IC50
Result: 865

Task: # input binder: LG212A2 (VHH) VHH: EVQLVESGGGLVQAGGSLRLSCAASGRTFDTYFVGWFRQAPGKERDFVAAISWSGDRTFYADSVKGRFTISRDNAKNTEYLQMNSLKPEDTAVYYCAAREYGRLYSDSEAYDYWGQGTQVTVSS ; wanted: its ERA neutralizing antibody titer (RFFIT): nM IC50
Result: 3940

Task: # input binder: LG213H7 (VHH) VHH: EVQLVESGGGLVQAGGSLRLSCAASGRTLSSYRMGWFRQAPGKEREFISTISWNGRSTYYADSVKGRFIFSEDNAKNTVYLQMNSLKPEDTAVYYCAAALIGGYYSDVDAWSYWGPGTQVTVSS ; wanted: its ERA neutralizing antibody titer (RFFIT): nM IC50
Result: 25.6

Task: # input binder: LG213E6 (VHH) VHH: EVQLVESGGGLVQAGASLRLSCAASGSTLSRYGVGWFRQAPGKERELVASVDWSGSRTYYADSVKGRFTISRDNAKNTGYLQMNSLKPDDTAVYYCAADSSVVPGIEKYDDWGLGTQVTVSS ; wanted: its ERA neutralizing antibody titer (RFFIT): nM IC50
Result: 14.4
